- Assay Protocol: In vivo kinetics experiment (radioactivity distribution)
- Design: species or system Wistar male rat
- Condition Context: 60 min after administration; rat i.v.; mean ± SD
Exercise: state measured Radioactivity distribution Bladder (including urine) for each of the compounds provided.
Numbers only, in % ID/g.

As a guide, the following entries are already answered.
FCCn1c(-c2cncc(Cn3cncc3[123I])c2)nc2cc(F)c(Cl)cc21 [[^123I] 610]	0.29
Cn1c(-c2cncc(Cn3ccnc3)c2)nc2ccc([123I])cc21 [[^123I] 607]	2.99
COc1cc([123I])cc2c1nc(-c1cncc(Cn3ccnc3)c1)n2C1CC1 [[^123I] 609]	2.03
Fc1cc2nc(-c3cncc(Cn4ccnc4)c3)n(Cc3ccc([123I])cc3)c2cc1Cl [[^123I] 605]	0.13
CC(C)n1c(-c2cncc(Cn3ccnc3)c2)nc2ccc([123I])cc21 [[^123I] 606]	2.06
FCCn1c(-c2cncc(Cn3ccnc3)c2)nc2ccc([123I])cc21 [[^123I] 604]	3.04
COC(=O)c1cncn1[C@H](C)c1ccc(I)cc1 [[^123I] IMTO, (R)-[^123I]iodometomidate, reference compound]	0.68

Now, please, on to the next compound.
// query Radioactivity distribution Bladder (including urine) lookup needed for CCn1c(-c2cncc(Cn3ccnc3)c2)nc2ccc([123I])cc21 [[^123I] 608] , thanks.
// result 2.67

###

- Assay Protocol: In vivo kinetics experiment (radioactivity distribution)
- Design: species or system Wistar male rat
- Condition Context: 10 min after administration; rat i.v.; mean ± SD
Exercise: state measured Radioactivity distribution Whole brain for each of the compounds provided.
# do not omit the unit; it follows the number

COC(=O)c1cncn1[C@H](C)c1ccc(I)cc1 [[^123I] IMTO, (R)-[^123I]iodometomidate, reference compound]	0.30 ± 0.02 % ID/g

List reported Radioactivity distribution Whole brain for each of these compounds:
1. Cn1c(-c2cncc(Cn3ccnc3)c2)nc2ccc([123I])cc21 [[^123I] 607]
2. FCCn1c(-c2cncc(Cn3ccnc3)c2)nc2ccc([123I])cc21 [[^123I] 604]
3. CCn1c(-c2cncc(Cn3ccnc3)c2)nc2ccc([123I])cc21 [[^123I] 608]
4. COc1cc([123I])cc2c1nc(-c1cncc(Cn3ccnc3)c1)n2C1CC1 [[^123I] 609]
5. FCCn1c(-c2cncc(Cn3cncc3[123I])c2)nc2cc(F)c(Cl)cc21 [[^123I] 610]
6. Fc1cc2nc(-c3cncc(Cn4ccnc4)c3)n(Cc3ccc([123I])cc3)c2cc1Cl [[^123I] 605]
7. CC(C)n1c(-c2cncc(Cn3ccnc3)c2)nc2ccc([123I])cc21 [[^123I] 606]

// result
1: 0.03 ± 0.00 % ID/g; 2: 0.01 ± 0.00 % ID/g; 3: 0.03 ± 0.01 % ID/g; 4: 0.02 ± 0.00 % ID/g; 5: 0.04 ± 0.00 % ID/g; 6: 0.03 ± 0.00 % ID/g; 7: 0.03 ± 0.00 % ID/g

###

- Assay Protocol: In vivo kinetics experiment (radioactivity distribution)
- Set-up: species or system Wistar male rat
- Condition Context: rat, caudal vein, 30 min after administration
Exercise: state measured Adrenal gland/kidney ratio of radioactivity accumulation for each of the compounds provided.
Give bare numbers.

Fc1cc2nc(-c3cncc(Cn4ccnc4)c3)n(CC[18F])c2cc1Br [[^18F] 200]	17.00
[123I]c1ccc2nc(-c3cncc(Cn4ccnc4)c3)n(C3CC3)c2c1 [[^123I] 602]	17.90
Fc1cc2nc(-c3cncc(Cn4ccnc4)c3)n(CCC[18F])c2cc1Cl [[^18F] 500]	19.08
FCCn1c(-c2cncc(Cn3ccnc3)c2)nc2cc(F)c([123I])cc21 [[^123I] 400]	17.90
Fc1cc2nc(-c3cncc(Cn4ccnc4)c3)n(CC[18F])c2cc1Cl [[^18F] 100]	18.18

Now, please, on to the next compound.
// query Adrenal gland/kidney ratio of radioactivity accumulation lookup needed for [123I]c1ccc2nc(-c3cncc(Cn4ccnn4)c3)n(C3CC3)c2c1 [[^123I] 603] , thanks.
// result 12.16

src = patent US10358434B2
